The values you see were collected from patent US20260273107A1.

assay: Solubility in the presence of a surfactant (Example 2-1); format: physicochemical; settings: 0.5% Triton X-100 aqueous solution; room temperature, stirred 20 hours; read-out: solubilities, TritonX-100 (0.5% aqueous solution)
Numbered stars: 1 amine (or outer) side, 2 acyl side, 3 side chain; on linkers, the order of the positions; unused ones are H or OH. Bridge positions count the residues as written; N and C are the ends. Square brackets hold non-standard residues; d marks the D form. Peptide text beside a SMILES is read from it. * marks the point of attachment. hPhe(3-Cl-4-CF3) = N[C@@H](CCc1ccc(C(F)(F)F)c(Cl)c1)C(=O)O; X1 = CN(C(CC(=O)[*:2])C(=O)C1CCCCC1)[*:1]; NMeCha = CN[C@@H](CC1CCCCC1)C(=O)O; NMeChg = CN[C@H](C(=O)O)C1CCCCC1; NMeF = CN[C@@H](Cc1ccccc1)C(=O)O; NMeI = CC[C@H](C)[C@H](NC)C(=O)O; NMeL = CN[C@@H](CC(C)C)C(=O)O; NMeV = CN[C@H](C(=O)O)C(C)C; NMeA = CN[C@@H](C)C(=O)O; Piperidide = C1CCN(*)CC1; Ac5c = NC1(C(=O)O)CCCC1; Sar = CNCC(=O)O; tBu = CC(C)(C)*
Entries annotated with measured solubility at 20 h
The reply should be a number in µg/mL, with the unit left off.

1) CC[C@H](C)[C@@H]1NC(=O)[C@H](CC(C)C)N(C)C(=O)CC(C(=O)C2CCCCC2)N(C)C(=O)[C@H](C2CCCCC2)N(C)C(=O)C2(CCCC2)NC(=O)[C@@H]2CCCN2C(=O)[C@H](CCc2ccc(C(F)(F)F)c(Cl)c2)NC(=O)CN(C)C(=O)[C@H](CC2CCCCC2)N(C)C(=O)CN(C)C(=O)CN(C)C1=O (some centres unmarked) [Compound 1] (cyclo([Ac5c][NMeChg][X1][NMeL]I[Sar][Sar][NMeCha][Sar][hPhe(3-Cl-4-CF3)]P)): 743

Now for the compound whose solubility at 20 h we want.
Find the recorded solubility at 20 h belonging to CC[C@H](C)[C@H]1C(=O)N[C@@H](COC(C)(C)C)C(=O)N(C)[C@@H](Cc2ccccc2)C(=O)N(C)[C@@H](C(C)C)C(=O)N[C@H](C(=O)N2CCCCC2)CC(=O)N(C)[C@@H](C)C(=O)N(C)[C@@H](Cc2ccccc2)C(=O)N[C@@H](CC(C)C)C(=O)N(C)[C@@H](CC(C)C)C(=O)N[C@@H]([C@@H](C)O)C(=O)N(C)CC(=O)N1C [Compound 2] ([NMeA][NMeF]L[NMeL]T[Sar][NMeI]S(tBu)[NMeF][NMeV]D-Piperidide; lactam N-11) and report it.
498

---

test: Solubility in aqueous solution containing 0.3% or 1% Cremophor EL (Example 3-3); type: physicochemical; details: 0.3% Cremophor EL aqueous solution, 25° C., 22 to 24 hours, read-out: solubility, 0.3% Cremophor EL
Bridge positions count the residues as written; N and C are the ends. Square brackets hold non-standard residues; d marks the D form. Peptide text beside a SMILES is read from it. * marks the point of attachment. hPhe(3,5-F2-4-CF3) = N[C@@H](CCc1cc(F)c(C(F)(F)F)c(F)c1)C(=O)O; hPhe(3-Cl-4-CF3) = N[C@@H](CCc1ccc(C(F)(F)F)c(Cl)c1)C(=O)O; NMePhe(4-Me) = CN[C@@H](Cc1ccc(C)cc1)C(=O)O; NMeGly(cPent) = CN[C@H](C(=O)O)C1CCCC1; Bta = N[C@@H](Cc1csc2ccccc12)C(=O)O; NMeCha = CN[C@@H](CC1CCCCC1)C(=O)O; Hyp = O=C(O)[C@@H]1C[C@@H](O)CN1; NMeF = CN[C@@H](Cc1ccccc1)C(=O)O; NMeI = CC[C@H](C)[C@H](NC)C(=O)O; NMeD = CN[C@@H](CC(=O)O)C(=O)O; NMeL = CN[C@@H](CC(C)C)C(=O)O; NMeV = CN[C@H](C(=O)O)C(C)C; NMeAbu = CC[C@H](NC)C(=O)O; NMeA = CN[C@@H](C)C(=O)O; Piperidide = C1CCN(*)CC1; Ac5c = NC1(C(=O)O)CCCC1; Aze = O=C(O)[C@@H]1CCN1; Sar = CNCC(=O)O; tBu = CC(C)(C)*
In this section, each of the molecules is paired with its reported solubility.
Value expressed in µg/mL; do not type the unit.

// worked examples, solubility included
1) CC[C@H](C)[C@@H]1NC(=O)[C@H](CC(C)C)N(C)C(=O)C[C@@H](C(=O)N(C)C)N(C)C(=O)[C@H]([C@@H](C)CC)N(C)C(=O)C2(CCCC2)NC(=O)[C@@H]2CCCN2C(=O)[C@H](CCc2ccc(C(F)(F)F)c(Cl)c2)NC(=O)CN(C)C(=O)[C@H](Cc2ccc(C)cc2)N(C)C(=O)[C@@H]2CCN2C(=O)[C@H](C)N(C)C1=O [Compound 7] ([NMeL]I[NMeA][Aze][NMePhe(4-Me)][Sar][hPhe(3-Cl-4-CF3)]P[Ac5c][NMeI][NMeD]-NMe2; lactam N-11): 492
2) CC(C)C[C@@H]1NC(=O)[C@H](Cc2ccccc2)N(C)C(=O)[C@@H](C(C)C)NC(=O)C[C@@H](C(=O)N2CCCCC2)NC(=O)[C@H](C(C)C)N(C)C(=O)[C@H](Cc2ccccc2)N(C)C(=O)[C@H](COC(C)(C)C)NC(=O)[C@H](CC(C)C)N(C)C(=O)CN(C)C(=O)[C@H]([C@@H](C)O)NC(=O)[C@H](CC(C)C)N(C)C1=O [Compound 3] ([dV][NMeF]L[NMeL]T[Sar][NMeL]S(tBu)[NMeF][NMeV]D-Piperidide; lactam N-11): 101
3) CC[C@H](C)[C@@H]1NC(=O)[C@H](CC(C)C)N(C)C(=O)C[C@@H](C(=O)N2CCCCC2)N(C)C(=O)[C@H](C2CCCC2)N(C)C(=O)C2(CCCC2)NC(=O)[C@@H]2CCCN2C(=O)[C@H](CCc2ccc(C(F)(F)F)c(Cl)c2)NC(=O)CN(C)C(=O)[C@H](CC2CCCCC2)N(C)C(=O)[C@@H]2CCN2C(=O)[C@H](C)N(C)C1=O [Compound 6] ([NMeL]I[NMeA][Aze][NMeCha][Sar][hPhe(3-Cl-4-CF3)]P[Ac5c][NMeGly(cPent)][NMeD]-Piperidide; lactam N-11): 434

Can you look up the measured solubility of CC[C@H](C)[C@@H]1NC(=O)[C@H](CC(C)C)N(C)C(=O)C[C@@H](C(=O)N2CCOCC2)N(C)C(=O)[C@H](C2CCCC2)N(C)C(=O)C2(CCCC2)NC(=O)[C@@H]2CCCN2C(=O)[C@H](CCc2ccc(C(F)(F)F)c(Cl)c2)NC(=O)CN(C)C(=O)[C@H](Cc2ccc(C(F)(F)F)cc2)N2CCCCC[C@@H](C2=O)N(C)C(=O)CN(C)C1=O for me?
450

How about this molecule: CC[C@H]1C(=O)N[C@@H](COC(C)(C)C)C(=O)N(C)[C@@H](Cc2ccccc2)C(=O)N(C)[C@@H](C)C(=O)N[C@H](C(=O)N2CCCCC2)CC(=O)N[C@H](CC(C)C)C(=O)N(C)[C@@H](CC(C)C)C(=O)N[C@@H](Cc2csc3ccccc23)C(=O)N(C)[C@@H](CC(C)C)C(=O)N[C@@H]([C@@H](C)O)C(=O)N(C)CC(=O)N1C [Compound 5] ([dL][NMeL][Bta][NMeL]T[Sar][NMeAbu]S(tBu)[NMeF][NMeA]D-Piperidide; lactam N-11)
295

How about CCO[C@@H]1C[C@H]2C(=O)NC3(CCC3)C(=O)N(C)[C@@H](C3CCCC3)C(=O)N(C)[C@H](C(=O)N(C)C)CC(=O)N(C)[C@@H](CC)C(=O)N[C@@H]([C@@H](C)CC)C(=O)N(C)CC(=O)N(C)[C@H]3C/C=C\CCN(C3=O)[C@@H](Cc3ccc(C(F)(F)F)cc3)C(=O)N(C)CC(=O)N[C@@H](CCc3cc(F)c(C(F)(F)F)c(F)c3)C(=O)N2C1 ?
583

One more molecule: CCO[C@@H]1C[C@H]2C(=O)NC3(CCCC3)C(=O)N(C)[C@@H](C3CCCC3)C(=O)N(C)[C@H](C(=O)N(C)C)CC(=O)N(C)[C@@H](CC(C)C)C(=O)N[C@@H]([C@@H](C)CC)C(=O)N(C)[C@@H](C)C(=O)N3CC[C@H]3C(=O)N(C)[C@@H](CC3CCCCC3)C(=O)N(C)CC(=O)N[C@@H](CCc3cc(F)c(C(F)(F)F)c(F)c3)C(=O)N2C1 [Compound 8] ([NMeL]I[NMeA][Aze][NMeCha][Sar][hPhe(3,5-F2-4-CF3)][Hyp](Et)[Ac5c][NMeGly(cPent)][NMeD]-NMe2; lactam N-11)
356

Now try CC(C)C[C@@H]1NC(=O)[C@H](Cc2ccccc2)N(C)C(=O)[C@H](COC(C)(C)C)NC(=O)[C@H](Cc2ccccc2)N(C)C(=O)[C@H](C)N(C)C(=O)[C@H](CC(C)C)N(C)C(=O)[C@@H](C)NC(=O)C[C@@H](C(=O)N2CCCCC2)NC(=O)[C@H](Cc2ccccc2)N(C)C(=O)[C@H]([C@@H](C)O)NC(=O)[C@H](CC(C)C)N(C)C1=O [Compound 4] ([dA][NMeL][NMeA][NMeF]S(tBu)[NMeF]L[NMeL]T[NMeF]D-Piperidide; lactam N-11) .
214
